assay system: human recombinant serotonin (5-Hydroxytryptamine) 5-HT2A receptor (Homo sapiens, UniProt P28223)
Construct: expressed in transfected cells; host or cells: CHO-K1 cells
Sequence (P28223 whole entry): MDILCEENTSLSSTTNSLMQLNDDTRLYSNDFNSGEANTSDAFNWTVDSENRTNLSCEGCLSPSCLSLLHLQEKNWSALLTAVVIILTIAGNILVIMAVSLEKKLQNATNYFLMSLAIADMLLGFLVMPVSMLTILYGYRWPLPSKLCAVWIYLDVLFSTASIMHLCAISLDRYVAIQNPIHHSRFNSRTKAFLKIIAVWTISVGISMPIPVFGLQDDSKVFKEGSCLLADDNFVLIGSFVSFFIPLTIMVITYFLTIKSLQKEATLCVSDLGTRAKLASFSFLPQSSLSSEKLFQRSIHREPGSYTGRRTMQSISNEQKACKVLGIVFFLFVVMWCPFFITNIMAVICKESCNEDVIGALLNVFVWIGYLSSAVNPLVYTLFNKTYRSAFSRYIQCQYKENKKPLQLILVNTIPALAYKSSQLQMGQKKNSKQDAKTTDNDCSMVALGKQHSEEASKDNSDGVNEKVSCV
assay comment: Serotonin 5-HT2A radioligand binding ([3H]Ketanserin)
experimental conditions: percent inhibition of specific binding
quantity measured: Inhibition of ligand binding, Ser. 5-HT2A

CN1CCc2c(c3cc(Cl)ccc3n2CC(=O)N2CCS(=O)(=O)CC2)C1 [Compound 295] | 0%
Cc1ccc2c(c1)c1c(n2Cc2ccccc2)CCN(C)C1 [Compound 137] | −2%
Cc1ccc2c(c1)c1c(n2CCc2ccccc2)CC(O)N(C)C1=O (stereo not shown) [Compound 215] | −6%

The reported Inhibition of ligand binding, Ser. 5-HT2A of the molecule CN1CCc2c(c3ccc(Cl)cc3n2CCc2ccccc2)C1 [Compound 82] was 99%

Cc1ccc(CCn2c3c(c4cc(C(=O)O)ccc42)CN(C)CC3)cn1 [Compound 256] has a reported Inhibition of ligand binding, Ser. 5-HT2A of 2%

Reported Inhibition of ligand binding, Ser. 5-HT2A ( CN1CCc2c(c3cc(OC(F)(F)F)ccc3n2CCc2ccc(C(F)(F)F)nc2)C1 [Compound 341] ) = 39%

Cc1ccc2c(c1)c1c(n2CCc2ccc(C(=O)O)nc2)CCN(C)C1 [Compound 255] yielded Inhibition of ligand binding, Ser. 5-HT2A of 1%

Form field Inhibition of ligand binding, Ser. 5-HT2A, entry CC1CCN(C(=O)CCn2c3c(c4cc(Cl)ccc42)CN(C)CC3)CC1 [Compound 325] : 53%

Please fill in: Inhibition of ligand binding, Ser. 5-HT2A reported for Cc1ccc(CCn2c3c(c4cc(Cl)ccc42)CN(c2cccc(C(F)(F)F)c2)CC3)cn1 [Compound 403] = 32%

The molecule listed as Cc1ccc2c(c1)c1c(n2CCc2ccccn2)CCN(C)C1 [Compound 21] has a reported Inhibition of ligand binding, Ser. 5-HT2A of 94%

Input Cc1ccc2c(c1)c1c(n2CCN2CCCCC2)CCN(C)C1 [Compound 224] . Output Inhibition of ligand binding, Ser. 5-HT2A: 32%

// CCN1CCc2c(c3cc(C)ccc3n2Cc2ccccc2)C1 [Compound 140] : Inhibition of ligand binding, Ser. 5-HT2A value = −3%

Sample Cc1ccc(CCn2c3c(c4cc(CO)ccc42)CN(C)CC3)cn1 [Compound 263] ; Inhibition of ligand binding, Ser. 5-HT2A observed: 24%

Field Inhibition of ligand binding, Ser. 5-HT2A (entry Cc1ccc2c(c1)c1c(n2CCc2ccccc2F)CCN(C)C1 [Compound 34] ) reads 99%

The reported value for CCCc1ccc(CCn2c3c(c4cc(Cl)ccc42)CN(C)CC3)cn1 [Compound 476] in terms of Inhibition of ligand binding, Ser. 5-HT2A is 100%

Measured Inhibition of ligand binding, Ser. 5-HT2A, Cc1ccc2c(c1)c1c(n2CCc2cnc(C)cn2)CCN(C)C1 [Compound 322] : 64%

For record CN1CCc2c(c3cc(Cl)ccc3n2CCc2ccccc2)C1 [Compound 36] the listed Inhibition of ligand binding, Ser. 5-HT2A is 98%

Measured Inhibition of ligand binding, Ser. 5-HT2A, Cc1cncc(CCn2c3c(c4cc(C)ccc42)CN(C)CC3)c1 [Compound 429] : 76%

Lookup result for CCN1CCc2c(c3cc(C)ccc3n2CCc2ccc(C)nc2)C1 [Compound 31] ; measured Inhibition of ligand binding, Ser. 5-HT2A: 65%

----------
assay system: human recombinant serotonin (5-Hydroxytryptamine) 5-HT6 receptor (Homo sapiens)
Construct: expressed in transfected cells; host or cells: human HeLa cells
Sequence (P50406 whole entry): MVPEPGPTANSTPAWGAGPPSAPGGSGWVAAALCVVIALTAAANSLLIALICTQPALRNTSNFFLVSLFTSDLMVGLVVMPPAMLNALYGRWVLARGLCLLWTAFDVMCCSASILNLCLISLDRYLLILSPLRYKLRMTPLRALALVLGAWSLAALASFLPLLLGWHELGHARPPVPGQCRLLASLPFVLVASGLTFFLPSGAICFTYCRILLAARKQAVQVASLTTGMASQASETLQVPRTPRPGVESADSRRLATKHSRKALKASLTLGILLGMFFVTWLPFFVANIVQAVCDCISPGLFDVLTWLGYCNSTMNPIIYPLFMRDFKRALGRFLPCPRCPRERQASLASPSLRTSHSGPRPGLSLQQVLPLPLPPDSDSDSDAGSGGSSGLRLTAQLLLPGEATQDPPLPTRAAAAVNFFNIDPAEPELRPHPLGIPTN
assay comment: Serotonin 5-HT6 radioligand binding ([3H]LSD)
Parameters: concentration or dose not given beside the values
experimental conditions: percent inhibition of specific binding
quantity measured: Inhibition of ligand binding, Ser. 5-HT6
Record the result as a number with its unit.

CN1CCc2c(c3cc(Cl)ccc3n2CCc2ccncc2)C1 | 102%
Cc1ccc2c(c1)c1c(n2CC(=O)N2CCOCC2)CCN(C)C1 | 19%
CN1CCc2c(c3cc(OC(F)(F)F)ccc3n2CCc2ccc(C(F)(F)F)nc2)C1 | 17%
Cc1ccc2c(c1)c1c(n2CCCc2ccc(C(F)(F)F)nc2)CCN(C)C1 | 100%
Cc1ccc2c(c1)c1c(n2CC(=O)N2Cc3ccccc3C2)CCN(C)C1 | −9%

Short answer for OC1CCC(N2CCc3c(c4cc(Cl)ccc4n3CCc3ccc(C(F)(F)F)nc3)C2)C1 (stereo not shown) : Inhibition of ligand binding, Ser. 5-HT6 was −4%

Reported Inhibition of ligand binding, Ser. 5-HT6 of Cc1ccc(Cn2c3c(c4ccccc42)CN(C)CC3)cn1 : 0%

Looking up CCc1ccc2c(c1)c1c(n2CCc2cnc(C)cn2)CCN(C)C1 , I see its Inhibition of ligand binding, Ser. 5-HT6 listed as 70%

Data point: CN1CCc2c(c3cc(Cl)ccc3n2CCN2CCCCC2)C1 ; Inhibition of ligand binding, Ser. 5-HT6 = 66%

# Inhibition of ligand binding, Ser. 5-HT6 of CCOC(=O)N1CCc2c(c3cc(Br)ccc3n2CCc2ccc(C)nc2)C1 = 6%

Summary for this molecule, CC(C)c1ccc2c(c1)c1c(n2CCc2ccc(C(F)(F)F)nc2)CCN(C)C1 : Inhibition of ligand binding, Ser. 5-HT6 is 72%

Lab book: Inhibition of ligand binding, Ser. 5-HT6 of Cc1ccc(CCn2c3c(c4cc(Cl)ccc42)CN(c2cccc(C(F)(F)F)c2)CC3)cn1 noted as 0%

Short answer for Cc1ncc(CCn2c3c(c4cc(Cl)ccc42)CN(C)CC3)cn1 : Inhibition of ligand binding, Ser. 5-HT6 was 76%

----------
assay system: human recombinant histamine H1 receptor (Homo sapiens, UniProt P35367)
Construct: expressed in transfected cells; host or cells: CHO cells
Sequence (P35367 whole entry): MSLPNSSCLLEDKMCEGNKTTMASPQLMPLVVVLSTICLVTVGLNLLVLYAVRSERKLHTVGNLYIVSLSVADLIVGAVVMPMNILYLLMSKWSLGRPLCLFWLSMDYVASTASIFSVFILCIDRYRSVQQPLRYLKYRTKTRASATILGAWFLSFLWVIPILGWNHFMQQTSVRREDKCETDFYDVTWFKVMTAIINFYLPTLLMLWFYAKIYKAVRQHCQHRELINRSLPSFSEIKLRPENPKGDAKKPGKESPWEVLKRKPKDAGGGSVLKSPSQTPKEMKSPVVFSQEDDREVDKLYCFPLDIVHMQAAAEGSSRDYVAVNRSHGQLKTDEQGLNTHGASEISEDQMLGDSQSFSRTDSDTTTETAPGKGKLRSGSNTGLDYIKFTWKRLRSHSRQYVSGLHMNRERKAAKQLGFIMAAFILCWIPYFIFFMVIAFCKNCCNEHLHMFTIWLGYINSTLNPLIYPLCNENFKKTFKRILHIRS
assay comment: Histamine H1 radioligand binding ([3H]Pyrilamine)
experimental conditions: 0.1 μM compound; […] [3H]Pyrilamine; read-out: Histamine Binding H1, percent inhibition of specific binding
quantity measured: inhibition at 0.1 µM (%)
Respond with the bare value in %.

Solved cases (4 shown):
Cc1ccc2c(c1)c1c(n2CCc2ccccc2F)CCN(C)C1 | 67
CN1CCc2c(c3cc(Cl)ccc3n2CCc2ccccc2)C1 | 91
CCN1CCc2c(c3cc(C)ccc3n2CCc2ccccc2)C1 | 78
CCN1CCc2c(c3cc(C)ccc3n2CC(O)c2ccc(C)cc2)C1 (racemic) | 57

Query molecule follows.
Measured inhibition at 0.1 µM, Cc1ccc(CCn2c3c(c4ccccc42)CN(C)CC3)cc1 : 56

----------
Consider the following compounds and their measured Inhibition of ligand binding, Ser. 5-HT6 readings.
assay system: human recombinant serotonin (5-Hydroxytryptamine) 5-HT6 receptor (Homo sapiens)
Construct: expressed in transfected cells; host or cells: human HeLa cells
assay comment: Serotonin 5-HT6 radioligand binding ([3H]LSD)
Parameters: concentration or dose not given beside the values
experimental conditions: percent inhibition of specific binding
Report the figure in % without appending any unit label.

Answered examples (4):
Cc1ccc2c(c1)c1c(n2CCc2ccc(C(F)(F)F)nc2)CCN(C)C1 | 88
Cc1ccc2c(c1)c1c(n2CCc2ccc(C(C)C)nc2)CCN(C)C1 | 91
CN1CCc2c(c3ccccc3n2CCc2ccccc2)C1 | 95
Cc1ccc2c(c1)c1c(n2CCc2cncc(Cl)c2)CCN(C)C1 | 96

Inhibition of ligand binding, Ser. 5-HT6 measured on CCN1CCc2c(c3ccccc3n2CCc2ccc(C)cc2)C1 = 40

CN1CCc2c(c3cc(Cl)ccc3n2CCc2ccc(C(F)(F)F)nc2)C1 yielded Inhibition of ligand binding, Ser. 5-HT6 of 84

Summary for this compound, CC(=O)N1CCN(C(=O)Cn2c3c(c4cc(Cl)ccc42)CN(C)CC3)CC1 : Inhibition of ligand binding, Ser. 5-HT6 is 9

Reported Inhibition of ligand binding, Ser. 5-HT6 for COc1ccc(CCn2c3c(c4cc(C)ccc42)CN(C)CC3)cc1 was 107

Lab note: measured Inhibition of ligand binding, Ser. 5-HT6 of Cc1ccc2c(c1)c1c(n2CCc2ccc(C(=O)O)nc2)CCN(C)C1 was 2

Form field Inhibition of ligand binding, Ser. 5-HT6, entry Cc1ccc2c(c1)c1c(n2CCc2ccc(C)nc2)CCN(C2CC2)C1 : 6

Field Inhibition of ligand binding, Ser. 5-HT6 (entry Cc1ccc2c(c1)c1c(n2CCc2ccccc2)CCN(C(=O)OCC(Cl)(Cl)Cl)C1 ) reads 9

Measured Inhibition of ligand binding, Ser. 5-HT6 of Cc1ccc2c(c1)c1c(n2CC(C)c2ccc(F)cc2)CCN(C)C1 (stereo not shown) : 98

The compound identified as CN1CCc2c(c3cc(Cl)ccc3n2CCCc2ccc(C(F)(F)F)nc2)C1 registered its Inhibition of ligand binding, Ser. 5-HT6 at 93

----------
Reported inhibition at 1 µM values for a set of compounds
assay system: human recombinant histamine H1 receptor (Homo sapiens, UniProt P35367)
Construct: expressed in transfected cells; host or cells: CHO cells
assay comment: Histamine H1 radioligand binding ([3H]Pyrilamine)
experimental conditions: compounds screened at 1 μM; read-out: Inhibition of ligand binding, Hist. H1 (percent inhibition of specific binding)
The response must be a number in % with no trailing unit.

Recorded result, COc1ccc2c(c1)c1c(n2CCc2nc(-c3ccccc3)cs2)CCN(C)C1 [Compound C1-6] , inhibition at 1 µM: 104

Sample CN1CCc2c(c3cc(Br)ccc3n2CC(=O)N2CCCCC2)C1 [Compound 516] ; inhibition at 1 µM observed: 49

The recorded inhibition at 1 µM for CN1CCc2c(c3ccncc3n2CCc2ccccn2)C1 [Compound 481] is 4
